Test system: Plasmodium berghei
Assay remarks: Luciferase/luciferin-expressing antifolate-resistant parasites were used to infect a culture of HepG2 cells that were pre-incubated with compounds. Infected hepatocytes emit light due to the luciferase reaction. Assay results are presented as the percent inhibition of light emission compared to control. […]
Format: functional
Settings: sporozoite, PBLUC_HILL_SLOPE 2.49, PBLUC_R_SQUARED 0.748, read-out: LUCIFERASE INFECTION ASSAY - IC50
Measured quantity: pIC50
Just so you know, pIC50 here is -log10 of the concentration in molar units; reply with that number alone.

Would you mind telling me what pIC50 value was observed for CCOC(=O)c1c(N)sc(Sc2ccccc2[N+](=O)[O-])c1-c1ccccc1 ?
5.36

====

pIC50 listing for selected molecules.
Test system: Plasmodium berghei
Assay remarks: Luciferase/luciferin-expressing antifolate-resistant parasites were used to infect a culture of HepG2 cells that were pre-incubated with compounds. Infected hepatocytes emit light due to the luciferase reaction. Assay results are presented as the percent inhibition of light emission compared to control. […]
Type: functional
Settings: sporozoite, read-out: LUCIFERASE INFECTION ASSAY - IC50
pIC50: −log10 of the molar value.

Examples with answers:
[
  {
    "Molecule": "COCCN1C=C(C(=O)OC)C(c2cccc(O)c2)C(C(=O)OC)=C1",
    "pIC50": "< 5.02"
  },
  {
    "Molecule": "COc1ccc(NC(=O)c2ccc(C)c(F)c2)cc1OCc1cccnc1",
    "pIC50": 5.21
  },
  {
    "Molecule": "Cn1ccnc1CN(C(=O)c1cnn(-c2ccccc2)c1)C1CC1",
    "pIC50": "< 5.00"
  },
  {
    "Molecule": "Cc1ccc(Sc2ccc(/C=C/C(=O)c3ccc(Cl)c(Cl)c3Cl)cc2[N+](=O)[O-])cc1",
    "pIC50": "< 5.00"
  }
]

Given the entry Cc1ccc2nc(CN3CCCCC3c3nc4ccccc4s3)cn2c1 (stereo not given) , report its measured pIC50.
< 5.00

Next record, please: CCOC(=O)C1(C)CCCCN1C(=O)c1ccc(C(=O)OC)cc1 (stereo not given)
< 5.00

Item: Cc1ccc(C(=O)Nc2ccnn2CC(C)C)cn1
< 5.00

Repeat for the following molecule: CC(C)Cn1c(N)c(C(=O)COC(=O)Cn2c(C(F)(F)F)nc3ccccc32)c(=O)n(C)c1=O
< 5.00

And for Cc1nn(Cc2nc3ccccc3s2)c(C)c1S(=O)(=O)N(C)Cc1ccco1 ?
< 5.00

Request: COc1ccc(-c2ccc(CCC(=O)Nc3sccc3C#N)o2)cc1
5.11

====

Test system: Plasmodium berghei
Assay remarks: Luciferase/luciferin-expressing antifolate-resistant parasites were used to infect a culture of HepG2 cells that were pre-incubated with compounds. Infected hepatocytes emit light due to the luciferase reaction. Assay results are presented as the percent inhibition of light emission compared to control. […]
Type: functional
Settings: sporozoite, FFLUC_HILL_SLOPE 3.74, FFLUC_R_SQUARED 0.413, HEPG2TOX_HILL_SLOPE 6.6, HEPG2TOX_R_SQUARED 0.125, read-out: LUCIFERASE INFECTION ASSAY - IC50
pIC50: −log10 of the molar value.
Measured quantity: pIC50

# query: pIC50 | item CC(C)N1C(=O)/C(=N\NC(=S)NC2CCCCC2)c2ccccc21 | system: Plasmodium berghei
< 5.00

====

Test system: Plasmodium berghei
Assay remarks: Luciferase/luciferin-expressing antifolate-resistant parasites were used to infect a culture of HepG2 cells that were pre-incubated with compounds. Infected hepatocytes emit light due to the luciferase reaction. Assay results are presented as the percent inhibition of light emission compared to control. […]
Assay type: functional
Settings: sporozoite, HEPG2TOX_HILL_SLOPE 3.86, HEPG2TOX_R_SQUARED 0.943, PBLUC_HILL_SLOPE 3.55, PBLUC_R_SQUARED 0.451, read-out: LUCIFERASE INFECTION ASSAY - IC50
Measured quantity: IC50
Just the number plus its unit, please.

Please look up its IC50: CN(C)Cc1ccc(CNC(=O)Cc2ccc(-c3ccccc3)cc2)cc1
4.18 µM

====

Tested on: Plasmodium berghei
Assay remarks: Luciferase/luciferin-expressing antifolate-resistant parasites were used to infect a culture of HepG2 cells that were pre-incubated with compounds. Infected hepatocytes emit light due to the luciferase reaction. Assay results are presented as the percent inhibition of light emission compared to control. […]
Format: functional
Settings: sporozoite, HEPG2TOX_HILL_SLOPE 3.97, HEPG2TOX_R_SQUARED 0.955, PBLUC_HILL_SLOPE 1.55, PBLUC_R_SQUARED 0.65, read-out: LUCIFERASE INFECTION ASSAY - IC50
Measured quantity: IC50

IC50 for Cc1oc2c(c1C(=O)N1CCC(C)CC1)C(=O)c1ccccc1C2=O ?
2.73 µM

====

System: Plasmodium berghei
Assay remarks: Luciferase/luciferin-expressing antifolate-resistant parasites were used to infect a culture of HepG2 cells that were pre-incubated with compounds. Infected hepatocytes emit light due to the luciferase reaction. Assay results are presented as the percent inhibition of light emission compared to control. […]
Format: functional
Settings: sporozoite, HEPG2TOX_HILL_SLOPE 2.85, HEPG2TOX_R_SQUARED 0.925, PBLUC_HILL_SLOPE 20.1, PBLUC_R_SQUARED 0.623, read-out: LUCIFERASE INFECTION ASSAY - IC50
Measured quantity: pIC50
In plain terms, pIC50 is the concentration in mol/L turned into minus its base-10 logarithm.

Give Plasmodium berghei pIC50 for COc1ccc(S(=O)(=O)N2CCSc3cc(Cl)ccc32)cc1
5.55

====

Test system: Plasmodium berghei
Assay remarks: Luciferase/luciferin-expressing antifolate-resistant parasites were used to infect a culture of HepG2 cells that were pre-incubated with compounds. Infected hepatocytes emit light due to the luciferase reaction. Assay results are presented as the percent inhibition of light emission compared to control. […]
Type: functional
Settings: sporozoite, PBLUC_HILL_SLOPE 0.907, PBLUC_R_SQUARED 0.512, read-out: LUCIFERASE INFECTION ASSAY - IC50
Measured quantity: IC50

Lab note: need IC50 for CC(C)Cc1ccc(C(C)NC(=O)c2ccc(CN3CCCC3)cc2)cc1 (stereo unspecified) on Plasmodium berghei, anyone have it?
2160 nM

====

System: Plasmodium berghei
Assay remarks: Luciferase/luciferin-expressing antifolate-resistant parasites were used to infect a culture of HepG2 cells that were pre-incubated with compounds. Infected hepatocytes emit light due to the luciferase reaction. Assay results are presented as the percent inhibition of light emission compared to control. […]
Format: functional
Settings: sporozoite, PBLUC_HILL_SLOPE 15.6, PBLUC_R_SQUARED 0.267, read-out: LUCIFERASE INFECTION ASSAY - IC50
Measured quantity: pIC50
Worth noting: pIC50 values are minus log10 of concentrations stated in mol/L.

// lookup pIC50 for OCCNc1nc(-c2cccnc2)nc2scc(-c3ccccc3)c12
5.02

====

Tested on: Plasmodium berghei
Assay remarks: Luciferase/luciferin-expressing antifolate-resistant parasites were used to infect a culture of HepG2 cells that were pre-incubated with compounds. Infected hepatocytes emit light due to the luciferase reaction. Assay results are presented as the percent inhibition of light emission compared to control. […]
Format: functional
Settings: sporozoite, HEPG2TOX_HILL_SLOPE 3.19, HEPG2TOX_R_SQUARED 0.935, PBLUC_HILL_SLOPE 2.39, PBLUC_R_SQUARED 0.579, read-out: LUCIFERASE INFECTION ASSAY - IC50
Measured quantity: IC50 (µM)
Numbers only here, please. The scale is µM.

What does the record list as IC50 for COc1ccc(OC)c(NC(=O)c2ccc(NC3=C(Cl)C(=O)N(C4CCCCC4)C3=O)cc2)c1 ?
3.21

====

System: Plasmodium berghei
Assay remarks: Luciferase/luciferin-expressing antifolate-resistant parasites were used to infect a culture of HepG2 cells that were pre-incubated with compounds. Infected hepatocytes emit light due to the luciferase reaction. Assay results are presented as the percent inhibition of light emission compared to control. […]
Assay type: functional
Settings: sporozoite, PBLUC_HILL_SLOPE 12.8, PBLUC_R_SQUARED 0.114, read-out: LUCIFERASE INFECTION ASSAY - IC50
Measured quantity: IC50

Form field: reported IC50 of Cc1cc(C)nc(-n2nc(C)cc2Nc2ccccc2)n1
> 10 µM

====

Test system: Plasmodium berghei
Assay remarks: Luciferase/luciferin-expressing antifolate-resistant parasites were used to infect a culture of HepG2 cells that were pre-incubated with compounds. Infected hepatocytes emit light due to the luciferase reaction. Assay results are presented as the percent inhibition of light emission compared to control. […]
Type: functional
Settings: sporozoite, read-out: LUCIFERASE INFECTION ASSAY - IC50
Measured quantity: pIC50
pIC50 field: float, defined as -log10 of concentration (mol/L).

Below: 2 compounds and their reported pIC50.
[
  {
    "Smiles representation": "O=C(Nc1sc2c(c1-c1nc3ccccc3[nH]1)CCCC2)c1nc(-c2ccccc2)n(-c2ccccc2)n1",
    "Measurement": 5.02
  },
  {
    "Smiles representation": "COc1cc(CNc2nccc3nc(-c4ccccc4Cl)[nH]c23)cc(OC)c1OC",
    "Measurement": 5.07
  }
]

// next entry
Look up pIC50 for this compound: CCOc1ccc(C=C(c2nc3ccccc3s2)c2nc3ccccc3s2)c(O)c1
5.17
